- experiment.description: chemical genetic growth profiling, strain panel (AID 1159580);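 note: tested at 20 µM; growth read once vehicle control cultures reached saturation at 30 °C; 1 = growth at the plate median or of vehicle wells; lower values mean less growth of the strain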
- protocol.conditions: S. cerevisiae deletion strains, growth OD, locus YJR043C, strain POL32, hits give low values
Out of some 5,500 compounds screened, about 2,000 (36%) were called active. Not shown: some 18% with an inconclusive outcome. The list shows a part of the results.
reported.metric: normalized growth
// keep it numeric: no unit symbol after the value

Need normalized growth of `CC(=O)N[C@@H](CS)C(=O)O` , thanks.
1

Need normalized growth of `Cc1onc(-c2ccccc2)c1NC(=O)Nc1c(Cl)cccc1Cl` , thanks.
0.969

Need normalized growth of `Cc1cc(NC(=O)C2=C(O)c3ccccc3S(=O)(=O)N2C)no1` , thanks.
1.02

Need normalized growth of `CO/N=C(\C(=O)N[C@@H]1C(=O)N2C(C(=O)O)=C(COC(C)=O)CS[C@H]12)c1csc(N)n1` , thanks.
0.958

Need normalized growth of `COC(=O)C1=C(C)NC(C)=C(C(=O)OC)C1c1ccc(-c2ccsc2C(=O)OC)o1` , thanks.
0.994

Need normalized growth of `N#CCC(=O)Nc1ccccn1` , thanks.
1.01

Need normalized growth of `Cc1cc(-c2ccccc2)nnc1NCCN1CCOCC1` , thanks.
0.99

Need normalized growth of `COc1ccc([C@H]2Oc3cc(OC)cc(OC)c3C[C@H]2O)cc1` , thanks.
1.08

Need normalized growth of CC1(C)O[C@@H]2CC3C4CCC5=CC(=O)CCC5(C)C4(F)C(O)CC3(C)[C@]2(C(=O)CCl)O1 (some centres not stated) , thanks.
1.01

Need normalized growth of `CC(=O)OCC(COC(C)=O)OC(C)=O` , thanks.
1.02

Need normalized growth of `COC(=O)c1sccc1-c1ccc(C(C)=O)o1` , thanks.
0.977
